Please go through the items and note down their MIC values, Pasteurella multocida CVCC399.
System: Pasteurella multocida CVCC399
Experiment: in vitro susceptibility, MIC by mini broth dilution
Type: cell-based
Conditions: strain CVCC399
Hi! Could you send only the number? It should be in ug/mi, unit omitted.

[ask] # value lookup — system Pasteurella multocida CVCC399, readout MIC values, Pasteurella multocida CVCC399, item CCCN1C[C@H](C)[C@@H](O)[C@](C)(O)[C@@H](CC)OC(=O)[C@H](C)[C@@H](O[C@H]2C[C@@](C)(OC)[C@](O)(CNc3ccc(Cl)cn3)[C@H](C)O2)[C@H](C)[C@@H](O[C@@H]2O[C@H](C)C[C@H](N(C)C)[C@H]2O)[C@](C)(O)C[C@H]1C [syzx-211]
[reply] 8

[ask] Entry to check: CCCN1C[C@H](C)[C@@H](O)[C@](C)(O)[C@@H](CC)OC(=O)[C@H](C)[C@@H](O[C@H]2C[C@@](C)(OC)[C@@H](O)[C@H](C)O2)[C@H](C)[C@@H](O[C@@H]2O[C@H](C)C[C@H](N(C)C)[C@H]2O)[C@](C)(O)C[C@H]1C [Gamithromycin, reference compound]
[reply] 0.25

[ask] Entry to check: CCCN1CC(C)C(O)C(C)(O)C(CC)OC(=O)C(C)C(OC2CC(C)(OC)C(O)(CNNc3ccc(F)cc3)C(C)O2)C(C)C(OC2OC(C)CC(N(C)C)C2O)C(C)(O)CC1C (stereo not drawn) [syzx-181]
[reply] 1

[ask] Entry to check: CCCN1C[C@H](C)[C@@H](O)[C@](C)(O)[C@@H](CC)OC(=O)[C@H](C)[C@@H](O[C@H]2C[C@@](C)(OC)[C@](O)(CNCCc3ccncc3)[C@H](C)O2)[C@H](C)[C@@H](O[C@@H]2O[C@H](C)C[C@H](N(C)C)[C@H]2O)[C@](C)(O)C[C@H]1C [syzx-191]
[reply] 4

[ask] Entry to check: CCCN1CC(C)C(O)C(C)(O)C(CC)OC(=O)C(C)C(OC2CC(C)(OC)C(O)(CNCCN3CCCC3)C(C)O2)C(C)C(OC2OC(C)CC(N(C)C)C2O)C(C)(O)CC1C (stereo not drawn) [syzx-190]
[reply] 1

[ask] Entry to check: CCCCCCNC[C@]1(O)[C@H](C)O[C@@H](O[C@H]2[C@H](C)[C@@H](O[C@@H]3O[C@H](C)C[C@H](N(C)C)[C@H]3O)[C@](C)(O)C[C@@H](C)N(CCC)C[C@H](C)[C@@H](O)[C@](C)(O)[C@@H](CC)OC(=O)[C@@H]2C)C[C@@]1(C)OC [syzx-115]
[reply] 0.5

[ask] Entry to check: CCCCCNC[C@]1(O)[C@H](C)O[C@@H](O[C@H]2[C@H](C)[C@@H](O[C@@H]3O[C@H](C)C[C@H](N(C)C)[C@H]3O)[C@](C)(O)C[C@@H](C)N(CCC)C[C@H](C)[C@@H](O)[C@](C)(O)[C@@H](CC)OC(=O)[C@@H]2C)C[C@@]1(C)OC [syzx-147]
[reply] 0.5

[ask] Entry to check: CC[C@H]1OC(=O)[C@H](C)[C@@H](O[C@H]2C[C@@](C)(OC)[C@](O)(CNOCc3ccccc3)[C@H](C)O2)[C@H](C)[C@@H](O[C@@H]2O[C@H](C)C[C@H](N(C)C)[C@H]2O)[C@](C)(O)C[C@@H](C)NC[C@H](C)[C@@H](O)[C@]1(C)O [syzx-82]
[reply] 1

[ask] Entry to check: CCCN1C[C@H](C)[C@@H](O)[C@](C)(O)[C@@H](CC)OC(=O)[C@H](C)[C@@H](O[C@H]2C[C@@](C)(OC)[C@](O)(CNCCCN3CCOCC3)[C@H](C)O2)[C@H](C)[C@@H](O[C@@H]2O[C@H](C)C[C@H](N(C)C)[C@H]2O)[C@](C)(O)C[C@H]1C [syzx-188]
[reply] 1

[ask] Entry to check: CCCN1C[C@H](C)[C@@H](O)[C@](C)(O)[C@@H](CC)OC(=O)[C@H](C)[C@@H](O[C@H]2C[C@@](C)(OC)[C@](O)(CNc3ccccc3)[C@H](C)O2)[C@H](C)[C@@H](O[C@@H]2O[C@H](C)C[C@H](N(C)C)[C@H]2O)[C@](C)(O)C[C@H]1C [syzx-104]
[reply] 1

[ask] Entry to check: CCCN1C[C@H](C)[C@@H](O)[C@](C)(O)[C@@H](CC)OC(=O)[C@H](C)[C@@H](O[C@H]2C[C@@](C)(OC)[C@](O)(CNC(=O)c3ccccc3)[C@H](C)O2)[C@H](C)[C@@H](O[C@@H]2O[C@H](C)C[C@H](N(C)C)[C@H]2O)[C@](C)(O)C[C@H]1C [syzx-219]
[reply] 8

[ask] Entry to check: CCC1OC(=O)C(C)C(OC2CC(C)(OC)C(O)(CNc3cc(C)ccc3F)C(C)O2)C(C)C(OC2OC(C)CC(N(C)C)C2O)C(C)(O)CC(C)NCC(C)C(O)C1(C)O (stereo not drawn) [syzx-96]
[reply] 2

[ask] Entry to check: CC[C@H]1OC(=O)[C@H](C)[C@@H](O[C@H]2C[C@@](C)(OC)[C@](O)(CNc3ccccc3F)[C@H](C)O2)[C@H](C)[C@@H](O[C@@H]2O[C@H](C)C[C@H](N(C)C)[C@H]2O)[C@](C)(O)C[C@@H](C)NC[C@H](C)[C@@H](O)[C@]1(C)O [syzx-68]
[reply] 8

[ask] Entry to check: CCCN1C[C@H](C)[C@@H](O)[C@](C)(O)[C@@H](CC)OC(=O)[C@H](C)[C@@H](O[C@H]2C[C@@](C)(OC)[C@](O)(CNc3ccc(C)cc3C)[C@H](C)O2)[C@H](C)[C@@H](O[C@@H]2O[C@H](C)C[C@H](N(C)C)[C@H]2O)[C@](C)(O)C[C@H]1C [syzx-229]
[reply] 16
